Where do the numbers come from? From PubChem BioAssay (NCI).

tested on: SK-MEL-2 melanoma; assay: NCI tumour cell line growth inhibition, 48 h; in the data active means GI50 below about 0.43 µM; inactive means the rest
Just give me one of these, please: active, inactive

# example entries with known answers
COc1cc(C2CC(c3cc(Cl)c(C)cc3O)=NN2c2ccc(S(N)(=O)=O)cc2)cc(OC)c1OC (stereo not drawn) : inactive
CN1CCN(Cc2ccc(NC(=O)c3cncc(C#Cc4cncc5[nH]ncc45)c3)cc2C(F)(F)F)CC1 : active
CCN(Cc1cccc(C)c1)c1ccc(CO)c(Cl)c1 : inactive
Nc1ccc(Sc2ccc3c4c2cccc4c(=O)n2c4ccccc4nc32)cc1 : inactive
C[C@@H]1CC[C@H]2C(CN(C)CC3=C(C(F)(F)F)O[C@@H]4O[C@@]5(C)CC[C@H]6[C@H](C)CC[C@@H]3[C@@]46OO5)=C(C(F)(F)F)O[C@@H]3O[C@@]4(C)CC[C@@H]1[C@]32OO4 : inactive

Lookup: What outcome does the record of this test show for O=C(N/N=C\c1cc(Br)cc(Br)c1O)N/N=C/c1cc(Br)cc(Br)c1O ?
Found: inactive

Lookup: What outcome does the record of this test show for CCOC(=O)Nc1ccc2nc(Sc3ccc(Cl)cc3)sc2c1 ?
Found: inactive
